All figures here come from PubChem BioAssay AID2060604.

# Tested on: 379773-124-R-J2-PDC complex spheroids, viability % test/control
# experimentDescription: Anticancer human tumor 379773-124-R-J2-PDC patient-derived endometrial carcinoma cell line growth inhibition [CLK]
# conditions: second compound 0.0316 µM; first compound 0.0316 µM; active compounds read low
assayMetric: viability, T/C (%)
Numbers only, in %.

See these solved cases before continuing.
CCN1CCN(Cc2ccc(Nc3ncc(F)c(-c4cc(F)c5nc(C)n(C(C)C)c5c4)n3)nc2)CC1 + CNC(=O)c1ccc(Nc2nc(OC3CCCC3)c3c(-c4ccc5nc(C)oc5c4)c[nH]c3n2)c(OC)c1; 75.4
CCCS(=O)(=O)Nc1ccc(F)c(C(=O)c2c[nH]c3ncc(-c4ccc(Cl)cc4)cc23)c1F + CNC(=O)c1ccc(Nc2nc(OC3CCCC3)c3c(-c4ccc5nc(C)oc5c4)c[nH]c3n2)c(OC)c1; 74.1
Cn1ncnc1[C@H]1c2n[nH]c(=O)c3cc(F)cc(c23)N[C@@H]1c1ccc(F)cc1 + CNC(=O)c1ccc(Nc2nc(OC3CCCC3)c3c(-c4ccc5nc(C)oc5c4)c[nH]c3n2)c(OC)c1; 34.6
COc1ccc([C@@H](O)c2cc(-c3ncnc4cc(N5CCOCC5)ccc34)c(F)cc2Cl)nn1 + CNC(=O)c1ccc(Nc2nc(OC3CCCC3)c3c(-c4ccc5nc(C)oc5c4)c[nH]c3n2)c(OC)c1; 79.2

# next compound below
Entry CCCS(=O)(=O)Nc1ccc(F)c(C(=O)c2c[nH]c3ncc(-c4ccc(Cl)cc4)cc23)c1F + CN1CCN(c2cc(C(=O)Nc3cc4cc(-c5cnn(C)c5)ccc4cn3)ccn2)CC1 : reported viability, T/C = ?
80.5

* * *

For each record, write down the corresponding viability, T/C.
# Tested on: 379773-124-R-J2-PDC complex spheroids, viability % test/control
# experimentDescription: Anticancer human tumor 379773-124-R-J2-PDC cell line growth inhibition [CLK];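 further: compound exposure lasted seven days before the viability readout; 100% = DMSO vehicle control wells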
# conditions: second compound 0.0316 µM; first compound 0.00316 µM; active compounds read low

Cn1ncnc1[C@H]1c2n[nH]c(=O)c3cc(F)cc(c23)N[C@@H]1c1ccc(F)cc1 + CNC(=O)c1ccc(Nc2nc(OC3CCCC3)c3c(-c4ccc5nc(C)oc5c4)c[nH]c3n2)c(OC)c1; 65.7%
CCc1c2c(nc3ccc(O)cc13)-c1cc3c(c(=O)n1C2)COC(=O)[C@]3(O)CC + CN1CCN(c2cc(C(=O)Nc3cc4cc(-c5cnn(C)c5)ccc4cn3)ccn2)CC1; 14.1%

Entry COc1c(OCCCN2CCOCC2)ccc2c3n(c(=NC(=O)c4cnc(N)nc4)nc12)CCN3 + CN1CCN(c2cc(C(=O)Nc3cc4cc(-c5cnn(C)c5)ccc4cn3)ccn2)CC1 : reported viability, T/C = ?
94.2%

* * *

For each record, write down the corresponding viability, T/C.
# Tested on: 379773-124-R-J2-PDC complex spheroids, viability % test/control
# experimentDescription: Anticancer human tumor 379773-124-R-J2-PDC cell line growth inhibition [CLK];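 further: compound exposure lasted seven days before the viability readout; 100% = DMSO vehicle control wells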
# conditions: second compound 0.316 µM; first compound 10 µM; active compounds read low
Give bare numbers, in %.

See these solved cases before continuing.
COc1cccc2c1C(=O)c1c(O)c3c(c(O)c1C2=O)CC(O)(C(=O)CO)CC3OC1CC(N)C(O)C(C)O1 (stereo not given) + CN1CCN(c2cc(C(=O)Nc3cc4cc(-c5cnn(C)c5)ccc4cn3)ccn2)CC1; 0.21
O=c1[nH]cc(F)c(=O)[nH]1 + CNC(=O)c1ccc(Nc2nc(OC3CCCC3)c3c(-c4ccc5nc(C)oc5c4)c[nH]c3n2)c(OC)c1; 18.1
COC1C=CCC(C)C(C)S(=O)(=O)NC(=O)c2ccc3c(c2)N(CC2CCC21)CC1(CCCc2cc(Cl)ccc21)CO3 (stereo not given) + CN1CCN(c2cc(C(=O)Nc3cc4cc(-c5cnn(C)c5)ccc4cn3)ccn2)CC1; 1.06
C=CC(=O)N1CCN(c2nc(=O)n(-c3c(C)ccnc3C(C)C)c3nc(-c4c(O)cccc4F)c(F)cc23)C(C)C1 (stereo not given) + CNC(=O)c1ccc(Nc2nc(OC3CCCC3)c3c(-c4ccc5nc(C)oc5c4)c[nH]c3n2)c(OC)c1; 38.5
CC(=O)O[C@H]1C(=O)[C@@]2(C)[C@H]([C@H](OC(=O)c3ccccc3)[C@]3(O)C[C@H](OC(=O)[C@H](O)[C@@H](NC(=O)c4ccccc4)c4ccccc4)C(C)=C1C3(C)C)[C@]1(OC(C)=O)CO[C@@H]1C[C@@H]2O + CN1CCN(c2cc(C(=O)Nc3cc4cc(-c5cnn(C)c5)ccc4cn3)ccn2)CC1; 7.94

Return reported viability, T/C values for all items listed beneath this line.
1. C=CC(=O)N1CCN(c2nc(=O)n(-c3c(C)ccnc3C(C)C)c3nc(-c4c(O)cccc4F)c(F)cc23)C(C)C1 (stereo not given) + CN1CCN(c2cc(C(=O)Nc3cc4cc(-c5cnn(C)c5)ccc4cn3)ccn2)CC1
2. CCCS(=O)(=O)Nc1ccc(F)c(C(=O)c2c[nH]c3ncc(-c4ccc(Cl)cc4)cc23)c1F + CNC(=O)c1ccc(Nc2nc(OC3CCCC3)c3c(-c4ccc5nc(C)oc5c4)c[nH]c3n2)c(OC)c1
3. Nc1ccn(C2OC(CO)C(O)C2(F)F)c(=O)n1 (stereo not given) + CNC(=O)c1ccc(Nc2nc(OC3CCCC3)c3c(-c4ccc5nc(C)oc5c4)c[nH]c3n2)c(OC)c1
4. CC(Nc1ccc2c(c1)OCCn1cc(N3C(=O)OCC3C(F)F)nc1-2)C(N)=O (stereo not given) + CNC(=O)c1ccc(Nc2nc(OC3CCCC3)c3c(-c4ccc5nc(C)oc5c4)c[nH]c3n2)c(OC)c1
5. C#Cc1c(F)ccc2cc(O)cc(-c3ncc4c(N5CC6CCC(C5)N6)nc(OCC56CCCN5CC(F)C6)nc4c3F)c12 (stereo not given) + CN1CCN(c2cc(C(=O)Nc3cc4cc(-c5cnn(C)c5)ccc4cn3)ccn2)CC1

13.2
22.2
2.14
16.7
28.4
